Each entry below carries its measured pIC50, system: Tyrosine-protein kinase JAK2 (Homo sapiens).
Sequence (O60674 whole entry): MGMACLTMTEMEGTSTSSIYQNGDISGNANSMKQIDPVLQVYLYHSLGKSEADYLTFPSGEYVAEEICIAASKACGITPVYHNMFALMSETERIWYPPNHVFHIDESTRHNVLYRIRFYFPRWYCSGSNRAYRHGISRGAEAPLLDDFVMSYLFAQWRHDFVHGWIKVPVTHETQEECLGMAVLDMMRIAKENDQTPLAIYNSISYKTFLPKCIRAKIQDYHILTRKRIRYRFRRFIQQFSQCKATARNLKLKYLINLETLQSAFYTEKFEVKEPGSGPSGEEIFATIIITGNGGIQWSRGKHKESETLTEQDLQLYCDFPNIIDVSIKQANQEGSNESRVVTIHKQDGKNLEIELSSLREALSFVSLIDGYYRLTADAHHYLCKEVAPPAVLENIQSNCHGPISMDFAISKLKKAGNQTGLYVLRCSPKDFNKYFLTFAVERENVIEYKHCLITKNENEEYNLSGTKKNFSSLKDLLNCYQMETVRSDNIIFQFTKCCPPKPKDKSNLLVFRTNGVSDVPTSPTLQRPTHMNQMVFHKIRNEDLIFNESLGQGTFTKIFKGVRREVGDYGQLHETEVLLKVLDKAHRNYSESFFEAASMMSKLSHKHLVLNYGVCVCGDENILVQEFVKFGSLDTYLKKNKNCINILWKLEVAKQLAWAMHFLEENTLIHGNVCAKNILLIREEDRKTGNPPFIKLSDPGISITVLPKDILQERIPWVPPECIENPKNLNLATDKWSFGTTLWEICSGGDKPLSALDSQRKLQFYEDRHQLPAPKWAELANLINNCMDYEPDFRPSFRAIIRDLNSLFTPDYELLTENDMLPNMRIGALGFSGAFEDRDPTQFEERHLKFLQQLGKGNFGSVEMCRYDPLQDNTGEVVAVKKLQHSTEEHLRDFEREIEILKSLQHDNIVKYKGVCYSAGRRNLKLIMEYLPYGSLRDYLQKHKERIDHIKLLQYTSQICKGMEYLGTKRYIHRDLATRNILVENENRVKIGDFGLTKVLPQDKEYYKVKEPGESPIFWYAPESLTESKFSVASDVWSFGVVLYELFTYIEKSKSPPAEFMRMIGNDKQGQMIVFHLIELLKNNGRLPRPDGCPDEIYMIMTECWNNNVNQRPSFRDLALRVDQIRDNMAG
pIC50: −log10 of the molar value.
measured_attribute: pIC50

{"columns": ["compound", "pIC50"],
 "data": [
  ["Cn1ccc(-c2cn3nccc3c(-c3cnn([C@]4(CC#N)CC5(CC[C@@H](C#N)CC5)C4)c3)n2)n1 (stereo not given in full) [US20250011332, Compound 13]", 6.99],
  ["Cn1ccc(-c2cn3nccc3c(-c3cnn(C4(CC#N)CC5(CCN(C#N)C5)C4)c3)n2)n1 (stereo not given) [US20250011332, Compound 10]", 7.48]
]}

1 = Cn1ncc(-c2cn3nccc3c(-c3cnn([C@]4(CC#N)CC5(C[C@H](C#N)C5)C4)c3)n2)c1N (stereo not given in full) [US20250011332, Compound 19]
2 = Cn1ccc(-c2cn3nccc3c(-c3cnn([C@]4(CC#N)CC5(CC[C@@H](C#N)CC5)C4)c3)n2)n1 (stereo not given in full) [US20250011332, Compound 12]
3 = Cn1cc(-c2cc(-c3cnn([C@]4(CC#N)CC5(C[C@H](C#N)C5)C4)c3)c3ccnn3c2)cn1 (stereo not given in full) [US20250011332, Compound 17]
Query: Output the entries ranked by pIC50 from maximum down to minimum. Hello, could you send the labels back in the order asked? Thank you.
Result: 1, 3, 2

###

- experimental_system: Tyrosine-protein kinase JAK3 (Homo sapiens, UniProt P52333)
- Sequence (P52333 whole entry): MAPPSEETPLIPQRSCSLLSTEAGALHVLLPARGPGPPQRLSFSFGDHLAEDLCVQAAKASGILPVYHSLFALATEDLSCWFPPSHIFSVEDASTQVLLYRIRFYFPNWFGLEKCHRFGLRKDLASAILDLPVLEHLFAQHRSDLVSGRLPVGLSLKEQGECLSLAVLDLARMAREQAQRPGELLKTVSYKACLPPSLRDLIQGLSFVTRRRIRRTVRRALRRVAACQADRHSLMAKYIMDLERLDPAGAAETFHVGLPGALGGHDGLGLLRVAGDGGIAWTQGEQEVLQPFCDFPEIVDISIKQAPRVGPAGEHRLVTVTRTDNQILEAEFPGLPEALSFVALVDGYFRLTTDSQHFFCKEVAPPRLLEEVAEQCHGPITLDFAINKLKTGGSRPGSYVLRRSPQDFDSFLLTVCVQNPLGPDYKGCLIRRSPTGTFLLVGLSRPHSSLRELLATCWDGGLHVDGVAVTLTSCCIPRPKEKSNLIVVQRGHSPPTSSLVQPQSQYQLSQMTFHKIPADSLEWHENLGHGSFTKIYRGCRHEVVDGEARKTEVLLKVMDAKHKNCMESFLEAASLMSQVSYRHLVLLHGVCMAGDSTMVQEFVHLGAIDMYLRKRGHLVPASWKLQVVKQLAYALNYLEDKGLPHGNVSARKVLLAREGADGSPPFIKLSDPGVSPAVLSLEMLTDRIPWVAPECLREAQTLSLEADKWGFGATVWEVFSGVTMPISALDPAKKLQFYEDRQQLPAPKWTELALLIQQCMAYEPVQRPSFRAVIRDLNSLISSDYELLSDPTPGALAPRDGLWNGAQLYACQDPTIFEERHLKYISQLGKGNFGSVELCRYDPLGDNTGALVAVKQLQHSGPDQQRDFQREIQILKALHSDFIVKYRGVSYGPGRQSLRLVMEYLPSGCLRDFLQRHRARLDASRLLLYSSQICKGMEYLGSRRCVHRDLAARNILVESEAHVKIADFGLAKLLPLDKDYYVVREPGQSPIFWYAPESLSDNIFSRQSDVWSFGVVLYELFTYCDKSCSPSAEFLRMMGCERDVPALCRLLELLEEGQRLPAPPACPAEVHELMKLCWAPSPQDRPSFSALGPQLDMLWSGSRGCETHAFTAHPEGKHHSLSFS
measured_attribute: IC50 (µM)
All answers are understood in µM, so give the number only.

Query: IC50 for N#CC[C@]1(n2cc(-c3nc(-c4cc(N)[nH]n4)cn4nccc34)cn2)CC2(C[C@@H](C#N)C2)C1 (some centres not stated) ?
Result: 0.48

###

- experimental_system: Non-receptor tyrosine-protein kinase TYK2 (Homo sapiens, UniProt P29597)
- Sequence (P29597 whole entry): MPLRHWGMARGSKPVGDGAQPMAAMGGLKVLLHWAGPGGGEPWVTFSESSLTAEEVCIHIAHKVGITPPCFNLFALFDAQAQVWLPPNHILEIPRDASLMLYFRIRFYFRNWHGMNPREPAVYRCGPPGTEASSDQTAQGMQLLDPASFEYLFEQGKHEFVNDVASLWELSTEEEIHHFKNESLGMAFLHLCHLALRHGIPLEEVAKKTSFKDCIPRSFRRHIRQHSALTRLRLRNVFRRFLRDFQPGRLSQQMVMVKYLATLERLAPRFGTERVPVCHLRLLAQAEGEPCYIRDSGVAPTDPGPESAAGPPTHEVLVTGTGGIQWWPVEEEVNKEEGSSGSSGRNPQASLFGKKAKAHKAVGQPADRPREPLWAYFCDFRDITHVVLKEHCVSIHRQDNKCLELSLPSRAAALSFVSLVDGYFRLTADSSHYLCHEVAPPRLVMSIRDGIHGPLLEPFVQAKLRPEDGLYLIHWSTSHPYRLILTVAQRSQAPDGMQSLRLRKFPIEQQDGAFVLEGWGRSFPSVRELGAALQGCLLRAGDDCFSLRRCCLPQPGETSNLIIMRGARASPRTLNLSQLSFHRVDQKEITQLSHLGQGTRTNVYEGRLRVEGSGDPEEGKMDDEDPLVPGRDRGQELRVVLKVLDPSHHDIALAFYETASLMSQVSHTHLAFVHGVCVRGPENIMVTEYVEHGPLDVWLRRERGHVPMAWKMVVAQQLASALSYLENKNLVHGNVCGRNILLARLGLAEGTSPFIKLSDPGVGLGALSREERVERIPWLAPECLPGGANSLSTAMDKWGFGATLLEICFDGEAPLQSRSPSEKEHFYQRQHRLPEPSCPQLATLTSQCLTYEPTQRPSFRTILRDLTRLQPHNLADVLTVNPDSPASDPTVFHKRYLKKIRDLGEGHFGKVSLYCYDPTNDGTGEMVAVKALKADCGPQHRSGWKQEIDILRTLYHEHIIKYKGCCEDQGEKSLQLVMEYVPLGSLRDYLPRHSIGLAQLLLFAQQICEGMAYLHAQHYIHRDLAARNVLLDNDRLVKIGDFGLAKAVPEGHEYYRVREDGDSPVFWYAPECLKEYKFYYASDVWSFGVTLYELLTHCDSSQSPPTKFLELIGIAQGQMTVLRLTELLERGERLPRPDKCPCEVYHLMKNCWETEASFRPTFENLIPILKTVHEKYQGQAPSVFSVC
- protocol: TYK2 Kinase Activity Test In Vitro
pIC50: −log10 of the molar value.
measured_attribute: pIC50

I = Cn1ccc(-c2cn3nccc3c(-c3cnn(C4(CC#N)CC5(CCN(C#N)C5)C4)c3)n2)n1 (centres undefined)
II = Cn1ccc(-c2cn3nccc3c(-c3cnn([C@]4(CC#N)CC5(CC[C@@H](C#N)CC5)C4)c3)n2)n1 (some centres undefined) [US20250011332, Compound 12]
III = Cn1cc(-c2cn3nccc3c(-c3cnn([C@]4(CC#N)CC5(C[C@@H](C#N)C5)C4)c3)n2)cn1 (some centres undefined)
Query: Hey, quick one: sort these by pIC50, low to high? Your answer should be the labels, listed in the requested order.
Result: I, II, III
(I: 7.52, II: 8.22, III: 8.70)
